Hello, the source for this data is ChEMBL document CHEMBL1828500, in case you need it.

System: Staphylococcus aureus
EXPERIMENTAL DETAILS: Antibacterial activity against Staphylococcus aureus MTCC 96 after 24 hrs by agar well diffusion method
Assay type: functional
DETAILS: MTCC 96, 24 h

- COMPOUND: "c1ccc2c(c1)CC1Sc3nncn3N=C21 (stereo not drawn)"
  MEASUREMENT TARGET: "Staphylococcus aureus"
  MIC, µg/mL: 128
- COMPOUND: "CCCc1nnc2n1N=C1c3ccccc3CC1S2 (stereo not drawn)"
  MEASUREMENT TARGET: "Staphylococcus aureus"
  MIC, µg/mL: 8
- COMPOUND: "Cc1nnc2sc3cc4ccccc4c-3nn12"
  MEASUREMENT TARGET: "Staphylococcus aureus"
  MIC, µg/mL: 256
- COMPOUND: "CCc1nnc2sc3cc4ccccc4c-3nn12"
  MEASUREMENT TARGET: "Staphylococcus aureus"
  MIC, µg/mL: 128
- COMPOUND: "c1ccc2c3nn4cnnc4sc-3cc2c1"
  MEASUREMENT TARGET: "Staphylococcus aureus"
  MIC, µg/mL: 256
- COMPOUND: "CCCc1nnc2n1N=C1c3cccc(C)c3CC1S2 (stereo not drawn)"
  MEASUREMENT TARGET: "Staphylococcus aureus"
  MIC, µg/mL: 16
- COMPOUND: "Cc1cccc2c1CC1Sc3nnc(C)n3N=C21 (stereo not drawn)"
  MEASUREMENT TARGET: "Staphylococcus aureus"
  MIC, µg/mL: 8
- COMPOUND: "CC(C)c1nnc2n1N=C1c3ccccc3CC1S2 (stereo not drawn)"
  MEASUREMENT TARGET: "Staphylococcus aureus"
  MIC, µg/mL: 4
- COMPOUND: "Cc1cccc2c1CC1Sc3nnc(-c4ccccc4)n3N=C21 (stereo not drawn)"
  MEASUREMENT TARGET: "Staphylococcus aureus"
  MIC, µg/mL: 32
- COMPOUND: "c1ccc(-c2nnc3sc4cc5ccccc5c-4nn23)cc1"
  MEASUREMENT TARGET: "Staphylococcus aureus"
  MIC, µg/mL: 256
- COMPOUND: "c1ccc(-c2nnc3n2N=C2c4ccccc4CC2S3)cc1 (stereo not drawn)"
  MEASUREMENT TARGET: "Staphylococcus aureus"
  MIC, µg/mL: 64
- COMPOUND: "CC(C)c1nnc2sc3cc4ccccc4c-3nn12"
  MEASUREMENT TARGET: "Staphylococcus aureus"
  MIC, µg/mL: 128
- COMPOUND: "Cc1cccc2c1CC1Sc3nnc(C(C)C)n3N=C21 (stereo not drawn)"
  MEASUREMENT TARGET: "Staphylococcus aureus"
  MIC, µg/mL: 4

----------
System: Escherichia coli
EXPERIMENTAL DETAILS: Antibacterial activity against Escherichia coli MTCC 1652 at 2 mg/ml after 24 hrs by agar well diffusion method
Type: functional
Activity calls are given as the source filed them. No cut-off for these calls is given here.

- MOLECULE: "c1ccc(-c2nnc3sc4cc5ccccc5c-4nn23)cc1"
  diameter of the inhibition zone (DIZ): "inactive"
- MOLECULE: "c1ccc2c(c1)CC1Sc3nncn3N=C21 (configuration not stated)"
  diameter of the inhibition zone (DIZ): "inactive"
- MOLECULE: "c1ccc2c3nn4cnnc4sc-3cc2c1"
  diameter of the inhibition zone (DIZ): "inactive"
- MOLECULE: "CCc1nnc2sc3cc4ccccc4c-3nn12"
  diameter of the inhibition zone (DIZ): "inactive"
- MOLECULE: "Cc1nnc2sc3cc4ccccc4c-3nn12"
  diameter of the inhibition zone (DIZ): "inactive"
- MOLECULE: "Cc1nnc2n1N=C1c3ccccc3CC1S2 (configuration not stated)"
  diameter of the inhibition zone (DIZ): "inactive"
- MOLECULE: "CC(C)c1nnc2sc3cc4ccccc4c-3nn12"
  diameter of the inhibition zone (DIZ): "inactive"

----------
MIC listing for selected compounds.
Test system: Bacillus subtilis
EXPERIMENTAL DETAILS: Antibacterial activity against Bacillus subtilis MTCC 121 after 24 hrs by agar well diffusion method
Format: functional
DETAILS: MTCC 121, 24 h
REPORTED ENDPOINT: MIC (µg/mL)

- COMPOUND: "CCCc1nnc2n1N=C1c3ccccc3CC1S2 (configuration not stated)"
  UNIT ABBREVIATION: "µg/mL"
  OBSERVED VALUE: 16
- COMPOUND: "CC(C)c1nnc2sc3cc4ccccc4c-3nn12"
  UNIT ABBREVIATION: "µg/mL"
  OBSERVED VALUE: 128
- COMPOUND: "Cc1cccc2c3nn4c(-c5ccccc5)nnc4sc-3cc12"
  UNIT ABBREVIATION: "µg/mL"
  OBSERVED VALUE: 32
- COMPOUND: "CCc1nnc2n1N=C1c3cccc(C)c3CC1S2 (configuration not stated)"
  UNIT ABBREVIATION: "µg/mL"
  OBSERVED VALUE: 4
- COMPOUND: "CC(C)c1nnc2n1N=C1c3ccccc3CC1S2 (configuration not stated)"
  UNIT ABBREVIATION: "µg/mL"
  OBSERVED VALUE: 16
- COMPOUND: "c1ccc2c(c1)CC1Sc3nncn3N=C21 (configuration not stated)"
  UNIT ABBREVIATION: "µg/mL"
  OBSERVED VALUE: 128
- COMPOUND: "CCc1nnc2sc3cc4ccccc4c-3nn12"
  UNIT ABBREVIATION: "µg/mL"
  OBSERVED VALUE: 128
- COMPOUND: "CCc1nnc2n1N=C1c3ccccc3CC1S2 (configuration not stated)"
  UNIT ABBREVIATION: "µg/mL"
  OBSERVED VALUE: 32
- COMPOUND: "O=C(O)c1cn(C2CC2)c2cc(N3CCNCC3)c(F)cc2c1=O [CIPROFLOXACIN]"
  UNIT ABBREVIATION: "µg/mL"
  OBSERVED VALUE: 5
- COMPOUND: "CCCc1nnc2sc3cc4ccccc4c-3nn12"
  UNIT ABBREVIATION: "µg/mL"
  OBSERVED VALUE: 16
- COMPOUND: "Cc1cccc2c1CC1Sc3nnc(-c4ccccc4)n3N=C21 (configuration not stated)"
  UNIT ABBREVIATION: "µg/mL"
  OBSERVED VALUE: 32
- COMPOUND: "Cc1cccc2c1CC1Sc3nncn3N=C21 (configuration not stated)"
  UNIT ABBREVIATION: "µg/mL"
  OBSERVED VALUE: 2

----------
Tested on: Staphylococcus aureus
EXPERIMENTAL DETAILS: Antibacterial activity against Staphylococcus aureus MTCC 96 after 24 hrs by agar well diffusion method
Assay type: functional
DETAILS: MTCC 96, 24 h
REPORTED ENDPOINT: log10 of MIC (log10 of the value in µg/mL)

- MOLECULE: "CCc1nnc2n1N=C1c3cccc(C)c3CC1S2 (configuration not stated)"
  OBSERVED VALUE: 0.90
- MOLECULE: "Cc1cccc2c3nn4cnnc4sc-3cc12"
  OBSERVED VALUE: 1.20
- MOLECULE: "Cc1nnc2n1N=C1c3ccccc3CC1S2 (configuration not stated)"
  OBSERVED VALUE: 2.41
- MOLECULE: "CCCc1nnc2sc3cc4ccccc4c-3nn12"
  OBSERVED VALUE: 1.20
- MOLECULE: "Cc1cccc2c3nn4c(C)nnc4sc-3cc12"
  OBSERVED VALUE: 1.81
- MOLECULE: "CCc1nnc2sc3cc4c(C)cccc4c-3nn12"
  OBSERVED VALUE: 1.51
- MOLECULE: "CCCc1nnc2sc3cc4c(C)cccc4c-3nn12"
  OBSERVED VALUE: 2.11
- MOLECULE: "O=C(O)c1cn(C2CC2)c2cc(N3CCNCC3)c(F)cc2c1=O"
  OBSERVED VALUE: 0.70
- MOLECULE: "CCc1nnc2n1N=C1c3ccccc3CC1S2 (configuration not stated)"
  OBSERVED VALUE: 1.20
- MOLECULE: "Cc1cccc2c3nn4c(C(C)C)nnc4sc-3cc12"
  OBSERVED VALUE: 2.11
- MOLECULE: "Cc1cccc2c3nn4c(-c5ccccc5)nnc4sc-3cc12"
  OBSERVED VALUE: 1.81
- MOLECULE: "Cc1cccc2c1CC1Sc3nncn3N=C21 (configuration not stated)"
  OBSERVED VALUE: 0.90

----------
Test system: Staphylococcus aureus
EXPERIMENTAL DETAILS: Antibacterial activity against Staphylococcus aureus MTCC 96 at 2 mg/ml after 24 hrs by agar well diffusion method
Assay type: functional
DETAILS: MTCC 96, 24 h, read-out: DIZ
Threshold rule: zone of inhibition at 2000 µg/mL greater than or equal to 20 mm is met; below that, not met.

- COMPOUND: "Cc1cccc2c3nn4cnnc4sc-3cc12"
  GROUP: "met"
- COMPOUND: "CCc1nnc2sc3cc4ccccc4c-3nn12"
  GROUP: "not met"
- COMPOUND: "Cc1cccc2c1CC1Sc3nnc(-c4ccccc4)n3N=C21 (stereo not drawn)"
  GROUP: "met"
- COMPOUND: "CCc1nnc2n1N=C1c3cccc(C)c3CC1S2 (stereo not drawn)"
  GROUP: "met"
- COMPOUND: "CC(C)c1nnc2n1N=C1c3ccccc3CC1S2 (stereo not drawn)"
  GROUP: "met"
- COMPOUND: "Cc1nnc2sc3cc4ccccc4c-3nn12"
  GROUP: "not met"
- COMPOUND: "CCc1nnc2sc3cc4c(C)cccc4c-3nn12"
  GROUP: "met"
- COMPOUND: "Cc1cccc2c1CC1Sc3nnc(C(C)C)n3N=C21 (stereo not drawn)"
  GROUP: "met"
- COMPOUND: "CCCc1nnc2sc3cc4c(C)cccc4c-3nn12"
  GROUP: "not met"
- COMPOUND: "Cc1cccc2c1CC1Sc3nncn3N=C21 (stereo not drawn)"
  GROUP: "met"
- COMPOUND: "c1ccc(-c2nnc3n2N=C2c4ccccc4CC2S3)cc1 (stereo not drawn)"
  GROUP: "met"
- COMPOUND: "O=C(O)c1cn(C2CC2)c2cc(N3CCNCC3)c(F)cc2c1=O [CIPROFLOXACIN]"
  GROUP: "met"
- COMPOUND: "Cc1cccc2c3nn4c(C(C)C)nnc4sc-3cc12"
  GROUP: "not met"
- COMPOUND: "c1ccc(-c2nnc3sc4cc5ccccc5c-4nn23)cc1"
  GROUP: "not met"
- COMPOUND: "Cc1nnc2n1N=C1c3ccccc3CC1S2 (stereo not drawn)"
  GROUP: "not met"
- COMPOUND: "CCCc1nnc2n1N=C1c3ccccc3CC1S2 (stereo not drawn)"
  GROUP: "met"
- COMPOUND: "Cc1cccc2c1CC1Sc3nnc(C)n3N=C21 (stereo not drawn)"
  GROUP: "met"
